- target.or.test.system: L858R/T790M/C797S EGFR (Homo sapiens, UniProt P00533, C797S/L858R/T790M)
- Construct: expressed in transfected cells; host or cells: H1975 clone #25 (lentiviral over-expression, endogenous EGFR knocked out by sgRNA)
- Sequence (P00533 25-1210 T790M/C797S/L858R): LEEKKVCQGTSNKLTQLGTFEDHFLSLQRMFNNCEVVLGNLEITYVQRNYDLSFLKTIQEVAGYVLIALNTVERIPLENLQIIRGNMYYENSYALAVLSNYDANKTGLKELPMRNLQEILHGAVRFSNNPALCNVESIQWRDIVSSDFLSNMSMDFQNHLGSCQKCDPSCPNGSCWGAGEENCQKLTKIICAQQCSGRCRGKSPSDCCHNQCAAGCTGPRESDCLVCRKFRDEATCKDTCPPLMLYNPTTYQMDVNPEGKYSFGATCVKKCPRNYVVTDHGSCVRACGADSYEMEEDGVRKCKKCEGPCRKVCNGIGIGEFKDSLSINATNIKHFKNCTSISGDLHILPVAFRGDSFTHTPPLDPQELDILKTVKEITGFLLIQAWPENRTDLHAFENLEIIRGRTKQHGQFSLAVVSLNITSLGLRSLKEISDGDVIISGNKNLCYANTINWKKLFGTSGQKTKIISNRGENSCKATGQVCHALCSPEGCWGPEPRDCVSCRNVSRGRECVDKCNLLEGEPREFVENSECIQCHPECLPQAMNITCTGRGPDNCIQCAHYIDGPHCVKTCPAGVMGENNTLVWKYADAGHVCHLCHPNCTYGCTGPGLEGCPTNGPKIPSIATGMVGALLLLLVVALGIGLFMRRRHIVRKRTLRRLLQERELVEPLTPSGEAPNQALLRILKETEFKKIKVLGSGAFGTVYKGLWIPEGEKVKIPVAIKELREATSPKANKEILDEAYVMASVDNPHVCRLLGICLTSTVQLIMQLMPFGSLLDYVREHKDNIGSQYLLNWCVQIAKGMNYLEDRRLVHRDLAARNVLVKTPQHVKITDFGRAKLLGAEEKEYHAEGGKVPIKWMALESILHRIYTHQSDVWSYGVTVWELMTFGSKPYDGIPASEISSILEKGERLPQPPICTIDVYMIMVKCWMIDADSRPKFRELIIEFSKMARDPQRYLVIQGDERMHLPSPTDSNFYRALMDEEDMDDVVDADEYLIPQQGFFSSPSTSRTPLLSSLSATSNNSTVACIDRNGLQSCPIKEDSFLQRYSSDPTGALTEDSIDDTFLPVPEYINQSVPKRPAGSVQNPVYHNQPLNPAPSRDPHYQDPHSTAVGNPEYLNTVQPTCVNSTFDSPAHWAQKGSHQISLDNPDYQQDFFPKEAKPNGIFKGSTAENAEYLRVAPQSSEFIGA
- protocol: EGFR degradation HTRF assay in H1975-clone #25 (LTC) cells
- Format: cell-based
- particulars: H1975 # 25-LTC (L858R/T790M/C797S), 16h treatment, HTRF
The reader will find reported DC50 values listed item by item below.
assay.readout: DC50 (nM)

* Cc1cc2cc(n1)-c1cnn(C)c1OCCC[C@@H](C)CN1/C(=N/C2=O)Nc2ccc(N3CCN(CCNc4cc(F)c([C@H]5CCC(=O)NC5=O)c(F)c4)[C@H](CC#N)C3)cc21 [Example 442] | 0.742
* Cc1cc2cc(n1)-c1cnn(C)c1OCCC[C@@H](C)CN1/C(=N/C2=O)Nc2ccc(N3CCN([C@H]4C[C@@H](Nc5cc(F)c([C@H]6CCC(=O)NC6=O)c(F)c5)C4)CC3)cc21 [Example 445] | 0.559
* Cc1cc2cc(n1)-c1cnn(C)c1OCCC[C@@H](C)CN1/C(=N/C2=O)Nc2ccc(C(=O)N(C)[C@@H]3CCN(CCc4cc(F)c([C@H]5CCC(=O)NC5=O)c(F)c4)[C@@H](C)C3)cc21 [Example 258] | 0.381

Reference source for all entries: patent US20240342292A1
